# Tested on: HCT-15 colon
# ASSAY DETAILS: NCI-60 one-dose screen, 48 h (100 = growth as untreated, 0 = no growth, -100 = all killed)
# CONDITION CONTEXT: 10 µM unless noted
Compounds without any hit were thinned out: in the full panel of roughly 83,000, 20% have a hit. Active and inactive are the calls of the source. The calls were made as follows: active = growth percent below 10; inactive = the rest.
QUANTITY KIND: growth

CCN(CC)c1ccc2cc(C(Nc3ccc(Cl)cc3)c3nnnn3C(C)(C)C)c(=O)oc2c1 (stereo not drawn): 91.8% (inactive)

Could I get growth for every one of these entries?
1. Cc1cnc([C@]23CC[C@@H](C)[C@H](C)[C@H]2C2=CC[C@@H]4[C@@]5(C)Cc6c([nH]c7ccccc67)C(C)(C)[C@@H]5CC[C@@]4(C)[C@]2(C)CC3)o1
2. CCN(CC)c1ccc(/C=C/c2ccc3cc(C)ccc3[n+]2CC)cc1
3. Cc1ncc(C(=O)Nc2ccc(CN3CCN(C)CC3)c(C(F)(F)F)c2)cc1C#Cc1c(N)ncc2ccc(C#N)cc12
4. C=C(C)[C@@H]1CC[C@]2(C(=O)OC)CC[C@]3(C)[C@H](CC[C@@H]4[C@@]5(C)CC/C(=N\OCCC(=NCCC#N)NOCCC#N)C(C)(C)[C@@H]5CC[C@]43C)[C@@H]12
5. Cc1ccc(NC(=S)/N=c2/n(-c3ccccc3)nc3n2CCN3C2=NCCN2)cc1
6. O=C1Nc2ccccc2/C1=C/C(=O)c1ccc(N2CCOCC2)cc1
7. O=C(Nc1ccc(Cl)c(C(F)(F)F)c1)Nc1ccc(-c2cccnc2)cc1N1CCC(CO)CC1

1: 66.8% [100 µM] (inactive); 2: 13.3% (inactive); 3: 28% (inactive); 4: 34.3% [100 µM] (inactive); 5: 107% (inactive); 6: 93% (inactive); 7: 14.8% (inactive)

---

# System: MOLT-4 leukemia
# ASSAY DETAILS: NCI-60 one-dose screen, 48 h
# CONDITION CONTEXT: 10 µM unless noted
This is part of a sample that, as a whole, favours compounds with a hit. Of some 83,000 tested, about 20% had one in any assay. Active and inactive are the calls of the source. How the source made its calls: active means growth percent below 10; inactive means the rest.
Please reply with one of these outcomes: t for active, f for inactive

Worked set:
C#C[C@]1(O)CC[C@H]2[C@@H]3CC=C4c5nc(Nc6ccccn6)sc5CC[C@]4(C)[C@H]3CC[C@@]21C: t
COC(=O)[C@]12CCC(C)(C)C[C@H]1C1=CC[C@@H]3[C@@]4(C)C/C(=C/c5cccnc5)C(=O)C(C)(C)[C@@H]4CC[C@@]3(C)[C@]1(C)CC2: t
COc1ccc2nc3c(cc2c1)C(=O)CC(c1ccccc1)C3 (stereo not drawn): f
O=c1[nH]c(CN2CCN(c3cccc(Cl)c3)CC2)nc2cc(Cl)ccc12: f

Test call, this compound: "CCN(CC)CCCNCc1cc(-c2ccccc2)nc2ccccc12"
t

Test call, this compound: "Cc1ccc(NC(=O)N[C@@H](Cc2cc(F)cc(F)c2)C(=O)N[C@@H]2C(=O)N3CCC[C@H]3C(=O)N3CCOC[C@H]3C(=O)N[C@@H](C)C(=O)N3C[C@H](C)C[C@H]3C(=O)O[C@H]2C)cc1"
f

Test call, this compound: "COc1ccc(/C=C2\N=C(Nc3ccccc3)N(NC(=O)c3ccccn3)C2=O)cc1"
f

Test call, this compound: "CCn1cc(-c2[nH]c(=S)ncc2-c2ccc(Cl)cc2)c(-c2ccc(Br)cc2)n1"
f
